Overview of recorded IC50 for various compounds
Test system: H660
Experiment: CellTiter-Glo cell viability assay
Assay type: cell-based
Details: NCI-H660; H660, PROSTATE, LN Met, 72 hours

| compound | IC50 / nM |
| --- | --- |
| CCC(C(=O)Nc1ncc(C(=O)NO)s1)c1ccc(OC)cc1 (racemic) | 158 |
| CC[C@H](C(=O)Nc1ncc(C(=O)NO)s1)c1ccc(OC)cc1 | 28 |
| CC[C@@H](C(=O)Nc1ncc(C(=O)NO)s1)c1ccc(OC)cc1 | 423 |

---

Test system: MV411
Assay: CellTiter-Glo cell viability assay
Format: cell-based
Conditions: Homo sapiens, MV4-11; MV411, HEMATOPIETIC, AML, 72 hours
pIC50: −log10 of the molar value.
# pIC50 per entry

| molecule | pIC50 |
| --- | --- |
| CCC(C(=O)Nc1ncc(C(=O)NO)s1)c1ccc(OC)cc1 (racemic) | 8.15 |
| CC[C@H](C(=O)Nc1ncc(C(=O)NO)s1)c1ccc(OC)cc1 | 8.22 |
| CC[C@@H](C(=O)Nc1ncc(C(=O)NO)s1)c1ccc(OC)cc1 | 7.64 |
